Data provenance: patent US10183914B2

# LOLMU herbicidal activity in percent values compiled below
test system: Lolium multiflorum; experiment: Pre-emergence herbicidal effect; type: in vivo; settings: 320 g/ha, 3 weeks
Could you give me the number in %? Just the number is fine.

Past entries and their recorded results:
{"compound": "CC1CC(=O)c2cnc(N[C@@H]3CCCc4ccccc43)nc2C1 (stereo partly drawn)", "property": "LOLMU herbicidal activity in percent", "numeric result": 100}
{"compound": "Cc1ccc2c(c1)[C@H](Nc1ncc3c(n1)COCC3=O)[C@@H](C)C2", "property": "LOLMU herbicidal activity in percent", "numeric result": 100}
{"compound": "Cc1ccc2c(c1)[C@H](Nc1ncc3c(n1)CC(c1ccc(F)cc1)CC3=O)[C@@H](C)C2 (stereo partly drawn)", "property": "LOLMU herbicidal activity in percent", "numeric result": 90}
{"compound": "Cc1ccc2c(c1)[C@H](Nc1ncc3c(n1)CCCC3=O)[C@@H](C)C2 [2.43]", "property": "LOLMU herbicidal activity in percent", "numeric result": 100}
{"compound": "Cc1ccc2c(c1)[C@H](Nc1ncc3c(n1)CC(C)(C)CC3=O)[C@@H](C)C2", "property": "LOLMU herbicidal activity in percent", "numeric result": 100}

Could you share which LOLMU herbicidal activity in percent value was measured for Cc1cccc2c1OCC[C@H]2Nc1ncc2c(n1)CCCC2=O ?
100

Item: O=C1CCCc2nc(N[C@@H]3CCCc4ccccc43)ncc21
100

Item: Cc1ccc2c(c1)[C@H](Nc1ncc3c(n1)CC(C(F)(F)F)CC3=O)[C@@H](C)C2 (stereo partly drawn)
100

Item: O=C1CC(C(F)(F)F)Cc2nc(N[C@@H]3CCCc4ccccc43)ncc21 (stereo partly drawn)
90

###

tested on: Triticum aestivum (spring); experiment: Pre-emergence herbicidal effect and crop plant compatibility; type: in vivo; conditions: 320 g/ha, 3 weeks
property: TRZAS herbicidal activity in percent (%)
Could you give me the number in %? Just the number is fine.

Past entries and their recorded results:
{"compound": "Cc1ccc2c(c1)[C@H](Nc1ncc3c(n1)CC(C(F)(F)F)CC3=O)[C@@H](C)C2 (stereo partly drawn)", "tested system": "Triticum aestivum (spring)", "property": "TRZAS herbicidal activity in percent", "numeric result": 0}
{"compound": "CC1(C)CC(=O)c2cnc(NC3CCOc4ccccc43)nc2C1 (racemic)", "tested system": "Triticum aestivum (spring)", "property": "TRZAS herbicidal activity in percent", "numeric result": 0}

With those in mind, consider the next compound.
Could you share which TRZAS herbicidal activity in percent value was measured for O=C1CC(C(F)(F)F)Cc2nc(N[C@@H]3CCCc4ccccc43)ncc21 (stereo partly drawn) ?
0

###

# chromatographic logP values compiled below
assay: logp (HCOOH), physicochemical characterization; settings: HCOOH (formic acid)
A bare number is all that is needed in reply.

Past entries and their recorded results:
{"compound": "CC(=O)c1cnc(N[C@@H]2CCCc3ccccc32)nc1 [1.3]", "property": "chromatographic logP", "numeric result": 2.51}
{"compound": "CC(=O)c1cnc(N[C@@H]2CCCc3ccccc32)nc1C [1.82]", "property": "chromatographic logP", "numeric result": 3.03}
{"compound": "CC1(C)CC(=O)c2cnc(N[C@@H]3CCCc4ccccc43)nc2C1 [2.25]", "property": "chromatographic logP", "numeric result": 3.71}

With those in mind, consider the next compound.
Could you share which chromatographic logP value was measured for CC(=O)c1cnc(NC2CCOc3ccccc32)nc1C (stereo not shown) [1.83] ?
2.44
